All values here come from the supplement of paper PMC8882468.

Tested on: HCI-008 (organoid from a HER2-enriched breast cancer xenograft)
Test: CTG-3D luminescence at 96 h relative to day-0 seeding control (ratio to day 0); higher = more growth / less cytotoxicity; PDxO 3D drug screen, 96 h, CTG-3D normalised to day-0 seeding control.
Conditions: 0.00025 µM; days in culture: 244
reportedMetric: CTG-3D luminescence at 96 h
Please reply with the number alone, leaving off any unit.

Observe how each entry below is paired with its result.
CC(C)n1nc(-c2ccc3oc(N)nc3c2)c2c(N)ncnc21: 1.75
O=C(O)C1(C(=O)O)CCC1.[NH2-].[NH2-].[Pt+2]: 1.8
CNC(=O)c1cccc(-c2ccc3c(N4CCOC[C@@H]4C)nc(N4CCOC[C@@H]4C)nc3n2)c1: 1.73

For the molecule Nc1ccn([C@@H]2O[C@H](CO)[C@@H](O)C2(F)F)c(=O)n1 , what CTG-3D luminescence at 96 h is on record?
1.74

Likewise for CC(C)(C(=O)NCC(F)(F)C(F)(F)F)C(=O)N[C@@H]1C(=O)Nc2ccccc2-c2ccccc21 ?
1.67

---

Test system: HCI-010 (organoid from a breast cancer xenograft)
Assay: CTG-3D luminescence at 96 h relative to day-0 seeding control (ratio to day 0); higher = more growth / less cytotoxicity; PDxO 3D drug screen (set 2), 96 h, CTG-3D normalised to day-0 seeding control.
Settings: 100 µM; days in culture: 79
# maps each entry to its CTG-3D luminescence at 96 h
Please reply with the number alone, leaving off any unit.

Observe how each entry below is paired with its result.
CC(=O)c1c(C)c2cnc(Nc3ccc(N4CCNCC4)cn3)nc2n(C2CCCC2)c1=O [palbociclib]: 0.772
COc1cccc2c1C(=O)c1c(O)c3c(c(O)c1C2=O)C[C@@](O)(C(=O)CO)C[C@@H]3O[C@H]1C[C@H](N)[C@@H](O)[C@H](C)O1 [epirubicin]: -0.00605
CC(C)n1nc(-c2ccc3oc(N)nc3c2)c2c(N)ncnc21 [sapanisertib]: 0.00579

For the molecule CS(=O)(=O)CCNCc1ccc(-c2ccc3ncnc(Nc4ccc(OCc5cccc(F)c5)c(Cl)c4)c3c2)o1 [lapatinib] , what CTG-3D luminescence at 96 h is on record?
-0.00188

---

# maps each entry to its CTG-3D luminescence at 96 h
System: HCI-001 (organoid from a triple-negative breast cancer xenograft)
Experiment: CTG-3D luminescence at 96 h relative to day-0 seeding control (ratio to day 0); higher = more growth / less cytotoxicity; PDxO 3D drug screen (set 2), 96 h, CTG-3D normalised to day-0 seeding control.
Conditions: 12.5 pM; days in culture: 397
Please reply with the number alone, leaving off any unit.

Observe how each entry below is paired with its result.
CC(=O)O[C@@]12CO[C@@H]1C[C@H](O)[C@@]1(C)C(=O)[C@H](O)C3=C(C)[C@@H](OC(=O)[C@H](O)[C@@H](NC(=O)OC(C)(C)C)c4ccccc4)C[C@@](O)([C@@H](OC(=O)c4ccccc4)[C@H]21)C3(C)C: 1.11
O=C(c1cc(Cc2n[nH]c(=O)c3ccccc23)ccc1F)N1CCN(C(=O)C2CC2)CC1: 1.71
CO[C@H]1C[C@@H]2CC[C@@H](C)[C@@](O)(O2)C(=O)C(=O)N2CCCC[C@H]2C(=O)O[C@H]([C@H](C)C[C@@H]2CC[C@@H](O)[C@H](OC)C2)CC(=O)[C@H](C)/C=C(\C)[C@@H](O)[C@@H](OC)C(=O)[C@H](C)C[C@H](C)/C=C/C=C/C=C/1C: 1.46

Next item in the queue.
For the molecule COc1cccc2c1C(=O)c1c(O)c3c(c(O)c1C2=O)C[C@@](O)(C(=O)CO)C[C@@H]3O[C@H]1C[C@H](N)[C@@H](O)[C@H](C)O1 [epirubicin] , what CTG-3D luminescence at 96 h is on record?
1.49
